Values were extracted from patent US12286451B2.

assay_remarks: Molar titration of boric acid/α-hydroxy acid reaction products with 0.1N sodium hydroxide
Type: physicochemical
run_conditions: 5.0 ml solution, pH at half of the end point
reported_property: pKa

                                   compound  measured_number
0  CC(O)C(=O)O (stereo not drawn) [Lactic Acid 0, Lactic Acid]                4
1  O=C(O)CO [Glycolic Acid 0, Glycolic Acid]              3.9
2  O=C(O)CC(O)(CC(=O)O)C(=O)O [Citric Acid 0, Citric Acid]              4.3
